assay-system: Beta-lactamase L1 (Stenotrophomonas maltophilia) (UniProt P52700)
test-details: Inhibition of Stenotrophomonas maltophilia L1 overexpressed in Escherichia coli BL21 (DE3) assessed as cefazolin MIC at 16 ug/ml after 12 hrs by macrodilution broth method

{"columns": ["structure-notation", "MIC [µg/mL]"],
 "data": [
  ["C[C@H](NC(=O)Cc1cccs1)C(=O)SCC(=O)O", 2],
  ["CC(C)[C@H](NC(=O)Cc1cccs1)C(=O)SCC(=O)O", 4],
  ["O=C(O)CSC(=O)[C@@H]1CCCN1C(=O)Cc1cccs1", 2],
  ["O=C(O)CSC(=O)[C@H](CCCCNC(=O)Cc1cccs1)NC(=O)Cc1cccs1", 4],
  ["CC(C)C[C@H](NC(=O)Cc1cccs1)C(=O)SCC(=O)O", 2],
  ["O=C(O)CSC(=O)[C@H](CO)NC(=O)Cc1cccs1", 4],
  ["O=C(O)CSC(=O)CNC(=O)Cc1cccs1", 4],
  ["O=C(O)CSC(=O)[C@H](Cc1ccccc1)NC(=O)Cc1cccs1", 4],
  ["CSCC[C@H](NC(=O)Cc1cccs1)C(=O)SCC(=O)O", 2],
  ["O=C(O)CSC(=O)[C@H](Cc1c[nH]c2ccccc12)NC(=O)Cc1cccs1", 2]
]}

----------
assay-system: Beta-lactamase L1 (Stenotrophomonas maltophilia, UniProt P52700)
Sequence (P52700 whole entry): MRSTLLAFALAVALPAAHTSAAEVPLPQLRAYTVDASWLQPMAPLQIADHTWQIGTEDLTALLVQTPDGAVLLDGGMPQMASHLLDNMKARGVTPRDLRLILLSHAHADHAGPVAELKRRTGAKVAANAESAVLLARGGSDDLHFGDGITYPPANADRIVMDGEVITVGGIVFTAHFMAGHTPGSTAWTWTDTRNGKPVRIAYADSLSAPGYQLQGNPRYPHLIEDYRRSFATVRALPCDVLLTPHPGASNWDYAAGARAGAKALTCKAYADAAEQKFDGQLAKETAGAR
test-details: Mixed-type inhibition of Stenotrophomonas maltophilia L1 overexpressed in Escherichia coli BL21 (DE3) using cefazolin as substrate incubated for 30 mins prior to testing by Lineweaver-Burk plot analysis
Please assign n whenever Ki is at or above 300 nM, and y whenever it is below.

{"columns": ["structure-notation", "assigned-label"],
 "data": [
  ["O=C(O)CSC(=O)CNC(=O)Cc1cccs1", "y"],
  ["CC(C)[C@H](NC(=O)Cc1cccs1)C(=O)SCC(=O)O", "y"],
  ["O=C(O)CSC(=O)[C@H](Cc1c[nH]c2ccccc12)NC(=O)Cc1cccs1", "y"],
  ["O=C(O)CSC(=O)[C@H](CCCCNC(=O)Cc1cccs1)NC(=O)Cc1cccs1", "y"],
  ["C[C@H](NC(=O)Cc1cccs1)C(=O)SCC(=O)O", "n"],
  ["O=C(O)CSC(=O)[C@@H]1CCCN1C(=O)Cc1cccs1", "n"],
  ["CC(C)C[C@H](NC(=O)Cc1cccs1)C(=O)SCC(=O)O", "y"],
  ["O=C(O)CSC(=O)[C@H](Cc1ccccc1)NC(=O)Cc1cccs1", "n"],
  ["O=C(O)CSC(=O)[C@H](CO)NC(=O)Cc1cccs1", "y"],
  ["CSCC[C@H](NC(=O)Cc1cccs1)C(=O)SCC(=O)O", "y"]
]}

----------
Each record here notes measured MIC.
Tested on: Aeromonas veronii bv. sobria
test-details: Inhibition of Aeromonas veronii bv. sobria ImiS overexpressed in Escherichia coli BL21 (DE3) assessed as imipenem MIC at 16 ug/ml after 12 hrs by macrodilution broth method
observation-type: MIC

{"columns": ["structure-notation", "observation-type", "reported-measurement"],
 "data": [
  ["O=C(O)CSC(=O)[C@H](CO)NC(=O)Cc1cccs1", "MIC", "1 µg/mL"],
  ["O=C(O)CSC(=O)[C@H](CCCCNC(=O)Cc1cccs1)NC(=O)Cc1cccs1", "MIC", "2 µg/mL"],
  ["O=C(O)CSC(=O)[C@H](Cc1c[nH]c2ccccc12)NC(=O)Cc1cccs1", "MIC", "2 µg/mL"],
  ["C[C@H](NC(=O)Cc1cccs1)C(=O)SCC(=O)O", "MIC", "1 µg/mL"],
  ["O=C(O)CSC(=O)[C@H](Cc1ccccc1)NC(=O)Cc1cccs1", "MIC", "1 µg/mL"],
  ["CC(C)[C@H](NC(=O)Cc1cccs1)C(=O)SCC(=O)O", "MIC", "1 µg/mL"],
  ["O=C(O)CSC(=O)CNC(=O)Cc1cccs1", "MIC", "1 µg/mL"],
  ["CC(C)C[C@H](NC(=O)Cc1cccs1)C(=O)SCC(=O)O", "MIC", "1 µg/mL"],
  ["O=C(O)CSC(=O)[C@@H]1CCCN1C(=O)Cc1cccs1", "MIC", "2 µg/mL"],
  ["CSCC[C@H](NC(=O)Cc1cccs1)C(=O)SCC(=O)O", "MIC", "1 µg/mL"]
]}

----------
assay-system: Beta-lactamase L1 (Stenotrophomonas maltophilia) (UniProt P52700)
test-details: Inhibition of Stenotrophomonas maltophilia L1 overexpressed in Escherichia coli BL21 (DE3) assessed as reduction of cefazolin MIC at 16 ug/ml after 12 hrs by macrodilution broth method relative to cefazolin-treated control

{"columns": ["structure-notation", "fold change (FC)"],
 "data": [
  ["C[C@H](NC(=O)Cc1cccs1)C(=O)SCC(=O)O", 4],
  ["O=C(O)CSC(=O)[C@H](CO)NC(=O)Cc1cccs1", 2],
  ["CC(C)[C@H](NC(=O)Cc1cccs1)C(=O)SCC(=O)O", 2],
  ["O=C(O)CSC(=O)CNC(=O)Cc1cccs1", 2],
  ["CC(C)C[C@H](NC(=O)Cc1cccs1)C(=O)SCC(=O)O", 4],
  ["O=C(O)CSC(=O)[C@@H]1CCCN1C(=O)Cc1cccs1", 4],
  ["CSCC[C@H](NC(=O)Cc1cccs1)C(=O)SCC(=O)O", 4],
  ["O=C(O)CSC(=O)[C@H](CCCCNC(=O)Cc1cccs1)NC(=O)Cc1cccs1", 2],
  ["O=C(O)CSC(=O)[C@H](Cc1ccccc1)NC(=O)Cc1cccs1", 2],
  ["O=C(O)CSC(=O)[C@H](Cc1c[nH]c2ccccc12)NC(=O)Cc1cccs1", 4]
]}
